Attribution: PubChem BioAssay AID1159580

assayText: chemical genetic growth profiling, strain panel (AID 1159580);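 also: tested at 20 µM; growth read once vehicle control cultures reached saturation at 30 °C; 1 = growth at the plate median or of vehicle wells; lower values mean less growth of the strain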
recordedConditions: S. cerevisiae deletion strains, growth OD, locus YHR079C, strain IRE1
In all, about 5,500 compounds went through this assay and about 2,000 (36%) were called active. Inconclusive results (about 18%) are left out. Rule as the data show it: active = normalized growth mostly below about 0.91 (no sharp cut-off); inconclusive = no clear call, values can overlap the other calls; inactive = mostly above about 0.92. This is one part of the list.
Your answer must be one of the following: T (active), F (inactive)

compound=COc1cc(O)c2c(c1)C(=O)c1cc(C)cc(O)c1C2=O group=F
compound=COc1cc(OC)c2c(OC)c(-c3ccc4c(c3)OCO4)c(=O)oc2c1 group=F
compound=COc1cc(Cc2cnc(N)nc2N)cc(OC)c1OC group=F
compound=O=C1C=CC(=O)c2c(O)c(Cl)c(Cl)c(O)c21 group=T
compound=Cc1ccc2nc3c(nc2c1)-c1ccccc1C3=O group=T
compound=O=Cc1ccccc1O[C@@H]1O[C@H](CO)[C@H](O)[C@@H](O)[C@H]1O group=F
compound="CC1SC(c2cccnc2)N(c2ccc(Cl)cc2)C1=O (configuration not stated)" group=T
compound=COc1ccc(OC)c2nc3c(nc12)C(=O)c1ccccc1-3 group=F
compound=O=C(Nc1ccc(F)cc1)c1cc(Br)ccc1O group=F
compound=COc1ccc(-c2c(O)c3c(OC)c4c(cc3oc2=O)OC(C)(C)C=C4)cc1 group=F

Look up the recorded call for O=[N+]([O-])c1cc(C(F)(F)F)ccc1Sc1n[nH]c(-c2cc(Cl)cc(Cl)c2)n1 in this test.
T

Look up the recorded call for CC1SC(c2cccnc2)N(c2ccc(F)cc2F)C1=O (configuration not stated) in this test.
F

====

assayText: chemical genetic growth profiling, strain panel (AID 1159580)
recordedConditions: S. cerevisiae deletion strains, growth OD, locus YCL016C, strain dcc1
Hit rate of the full screen: of about 5,500 compounds, about 2,000 (36%) were called active. Not shown: some 18% with an inconclusive outcome. Rule as the data show it: active = normalized growth mostly below about 0.91 (no sharp cut-off); inconclusive = no clear call, values can overlap the other calls; inactive = mostly above about 0.92. This is one part of the list.
Your answer must be one of the following: 1.0 for active, 0.0 for inactive

compound=CNC(=O)Oc1ccccc1OC(C)C group=0.0

Look up the recorded call for Oc1cccc2cccnc12 in this test.
1.0

Look up the recorded call for O=C(O)c1cccnc1C(=O)O in this test.
0.0

Look up the recorded call for CC(=O)O[C@@H]1C2CC[C@@H]3C1(C[C@@H](O)[C@@]1(O)[C@@H](C[C@H](O)C1(C)C)[C@]3(C)O)C[C@@]2(C)O (some centres undefined) in this test.
0.0

====

Overview of recorded normalized growth for various compounds
assayText: chemical genetic growth profiling, strain panel (AID 1159580)
recordedConditions: S. cerevisiae deletion strains, growth OD, locus YMR058W, strain fet3, hits give low values
Screen size: about 5,500 compounds; about 2,000 (36%) were called active. About 18% were inconclusive and are not listed. The list shows a part of the results.

compound=CCCCCC/C=C\CCCCCCCc1cccc(O)c1C(=O)O result="0.734 (active)"

// normalized growth lookup, compound = CC(=O)OC1CCC23CC1(C)CCC2C(C)(C)CC3OC(C)=O (stereo unspecified) , result: 1.03 (inactive)

// normalized growth lookup, compound = CCC1(C2=NCCN2)Cc2ccccc2O1 (stereo unspecified) , result: 1.01 (inactive)

// normalized growth lookup, compound = O=C1c2cccc(O)c2C(=O)c2c(O)cccc21 , result: 0.747 (active)

// normalized growth lookup, compound = O=C1C=C(O)c2ccccc2C1=O , result: 0.872 (active)

// normalized growth lookup, compound = CO/N=C(/C(=O)NC1C(=O)N2C(C(=O)OCOC(=O)C(C)(C)C)=C(/C=C\c3scnc3C)CSC12)c1csc(N)n1 (stereo unspecified) , result: 0.991 (inactive)

====

assayText: chemical genetic growth profiling, strain panel (AID 1159580);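 also: tested at 20 µM; growth read once vehicle control cultures reached saturation at 30 °C; 1 = growth at the plate median or of vehicle wells; lower values mean less growth of the strain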
recordedConditions: S. cerevisiae deletion strains, growth OD, locus YKL009W, strain mrt4, hits give low values
Hit rate of the full screen: of about 5,500 compounds, about 2,000 (36%) were called active. Not shown: some 18% with an inconclusive outcome. The list shows a part of the results.
quantityKind: normalized growth
// response body must contain only the number

These recorded examples may help you get a feel for the data.
smilesinput=N[C@@H](C(=O)N[C@@H]1C(=O)N2C(C(=O)O)=C(Cl)CS[C@H]12)c1ccccc1 result=1.02
smilesinput=CCCN(CCC)c1c([N+](=O)[O-])cc(C(F)(F)F)cc1[N+](=O)[O-] result=1.03
smilesinput=CC(=O)Nc1c(I)cc(I)c(C(=O)O)c1I result=0.978
smilesinput=O=C(/C=C/c1ccccc1)c1ccc(O[C@@H]2O[C@H](CO)[C@@H](O)[C@H](O)[C@H]2O)cc1O result=0.906
smilesinput=COc1ccc(/C=C/c2cc(O)cc(O[C@@H]3O[C@H](CO)[C@@H](O)[C@H](O)[C@H]3O)c2)cc1 result=1
smilesinput=O[C@H]1[C@H](O)[C@@H](O)C2OC[C@H]1O2 result=0.977
smilesinput=COc1ccc([C@@H](C)C(=O)c2ccc(O)cc2O)cc1 result=0.963
smilesinput=COc1ccc(CC(=O)c2ccc(O)cc2O)cc1 result=0.956

// normalized growth lookup, compound = CCCCN(CC)c1c([N+](=O)[O-])cc(C(F)(F)F)cc1[N+](=O)[O-] , result: 1.04

// normalized growth lookup, compound = O=C(/C=C/c1ccc(O)cc1)c1ccc(O)cc1O , result: 0.947

====

assayText: chemical genetic growth profiling, strain panel (AID 1159580);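 also: tested at 20 µM; growth read once vehicle control cultures reached saturation at 30 °C; 1 = growth at the plate median or of vehicle wells; lower values mean less growth of the strain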
recordedConditions: S. cerevisiae deletion strains, growth OD, locus YGL253W, strain hxk2
About 2,000 (36%) of roughly 5,500 compounds were called active. Inconclusive results (about 18%) are left out. No stated cut-off is given here; in the data, active means normalized growth mostly below about 0.91 (no sharp cut-off); inconclusive means no clear call, values can overlap the other calls; inactive means mostly above about 0.92. Some of the results follow.
Your answer must be one of the following: active, inactive

Look up the recorded call for COC(=O)C[C@H]1C(C)(C)[C@@H](OC(C)=O)[C@@H]2CC3=C4CC(=O)O[C@@H](c5ccoc5)[C@]4(C)CCC3[C@@]1(C)C2=O (stereo partly specified) in this test.
inactive

Look up the recorded call for C/C(=C\CO)CC[C@H](C)CCC[C@H](C)CCCC(C)C in this test.
active

Look up the recorded call for CC(=O)NC1C(O)OC(COS(=O)(=O)O)C(OC2OC(C(=O)O)C(OC3OC(CO)C(OC4OC(C(=O)O)C(O)C(O)C4OS(=O)(=O)O)C(OS(=O)(=O)O)C3NS(=O)(=O)O)C(O)C2OS(=O)(=O)O)C1O (stereo unspecified) in this test.
inactive

Look up the recorded call for CC(C)=CCC/C(C)=C/CO in this test.
inactive

Look up the recorded call for COCC1=C(C(=O)OC(C)OC(=O)OC(C)C)N2C(=O)[C@@H](NC(=O)/C(=N\OC)c3csc(N)n3)[C@H]2SC1 (stereo partly specified) in this test.
inactive

Look up the recorded call for NC(=NCCCCCCN=C(N)N=C(N)Nc1ccc(Cl)cc1)N=C(N)Nc1ccc(Cl)cc1 in this test.
active

Look up the recorded call for O=c1c(O)c(-c2ccccc2)oc2ccccc12 in this test.
active

Look up the recorded call for CNC(=O)Oc1ccccc1OC(C)C in this test.
inactive

Look up the recorded call for CC1CC(OC(=O)c2ccccc2O)CC(C)(C)C1 (stereo unspecified) in this test.
inactive

Look up the recorded call for O=c1c(O)c(-c2ccccc2)oc2cc(O)ccc12 in this test.
active

Look up the recorded call for CC(C)CCCC(C)N (stereo unspecified) in this test.
inactive

====

assayText: chemical genetic growth profiling, strain panel (AID 1159580);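 also: tested at 20 µM; growth read once vehicle control cultures reached saturation at 30 °C; 1 = growth at the plate median or of vehicle wells; lower values mean less growth of the strain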
recordedConditions: S. cerevisiae deletion strains, growth OD, locus YGR092W, strain DBF2, hits give low values
In all, about 5,500 compounds went through this assay and about 2,000 (36%) were called active. About 18% were inconclusive and are not listed. This is one part of the list.
quantityKind: normalized growth

These recorded examples may help you get a feel for the data.
molecule=COC(=O)c1sccc1S(=O)(=O)Nc1cc(C(F)(F)F)cc(C(F)(F)F)c1 result="0.977 (inactive)"
molecule=CC(C)Sc1c(Cl)cccc1NC(=O)Nc1ccccc1 result="0.836 (inactive)"
molecule=O=C(Nc1cc(Cl)cc(Cl)c1)c1cc(Cl)ccc1O result="0.321 (active)"
molecule=COc1cc(C2SCCS2)cc(Br)c1OC(=O)NC(=O)c1c(Cl)cccc1Cl result="0.919 (inactive)"
molecule=O=C(/C=C/c1ccc(Cl)cc1)Nc1cccc(Cl)c1 result="0.485 (inactive)"
molecule="C=CCC1C(=O)N(S(=O)(=O)c2ccc(Cl)cc2)N=C1CCC (centres undefined)" result="0.997 (inactive)"
molecule=O=S(=O)(Nc1c(F)cccc1F)c1ccc(Cl)c(Cl)c1 result="0.843 (inactive)"
molecule=O=C(OCCNc1ccc([N+](=O)[O-])cn1)c1ccc([N+](=O)[O-])o1 result="0.17 (active)"

// normalized growth lookup, molecule = Cn1cc(Br)c(-c2cccc(NS(=O)(=O)c3ccc(Cl)cc3)c2)n1 , result: 0.984 (inactive)

// normalized growth lookup, molecule = CCOC(=O)C(O)(c1ccc(NC(=O)c2ccc(Cl)c(Cl)c2)cc1)C(F)(F)F (centres undefined) , result: 0.892 (inactive)

// normalized growth lookup, molecule = O=C(Nc1ccc(F)cc1)c1cc(Br)ccc1O , result: 0.614 (inactive)

// normalized growth lookup, molecule = COc1ccc(OC)c2nc3c(nc12)C(=O)c1ccccc1-3 , result: 0.837 (inactive)

// normalized growth lookup, molecule = Cn1ncc(-c2nc(-c3ccc(Cl)cc3)cs2)c1N , result: 0.781 (inactive)

// normalized growth lookup, molecule = CC(C)Sc1c(Cl)cccc1NC(=O)Nc1cccc(C(F)(F)F)c1 , result: 0.94 (inactive)

// normalized growth lookup, molecule = Cc1cc(N=Cc2cc(Cl)cc(Cl)c2O)no1 , result: 0.187 (active)
